Data credit: patent US20250084063A1

# assay-target: UniProt:Q96LB1
# method-notes: MRGPRX2 β-Arrestin assay
# Assay type: cell-based
# Set-up: host or cells: PathHunter CHO-K1
# condition-notes: PathHunter CHO-K1 MRGPRX2 β-Arrestin cell line; agonist Cortistatin 14 0.25 μM
# Text: Example C: MRGPRX2 β-Arrestin Assay This assay measures compound inhibition of β-Arrestin recruitment, which is part of the G protein-independent pathway that results from the ligand-activated GPCR phosphorylation by specific GPCR kinases. […] The cells were maintained in culture medium from the Europhins DiscoverX Cell Culture Kit-107 which includes FBS, hygromycin B and G418. […] Plates were read on the PHERAstar microplate reader (BMG Labtech Cary, NC) measuring luminescence 0.1 to 1 second per well. […]
pIC50: −log10 of the molar value.
parameter: pIC50

[2H]C([2H])([2H])NC(=O)N1CC(CNc2cc(C(F)(F)F)nc3ccc(Cl)cc23)(n2cc(F)cn2)C1 = 7.00 to 10.00

QUERY: What value of measured pIC50 is listed for `NC(=O)N1CC(CNc2cc(C(F)(F)F)nc3cc(F)ccc23)(c2ccc(F)cn2)C1` ?
RESULT: 6.00 to 7.00

QUERY: What value of measured pIC50 is listed for `NS(=O)(=O)N1CC(CNc2cc(C(F)(F)F)nc3ccc(F)cc23)(n2cc(F)cn2)C1` ?
RESULT: 7.00 to 10.00

QUERY: What value of measured pIC50 is listed for O=C(NC1CC(O)C1)N1CC(CNc2cc(C(F)(F)F)nc3ccc(Cl)cc23)(n2cc(F)cn2)C1 (centres unmarked) ?
RESULT: 7.00 to 10.00

====

# assay-target: MRGPRX2 (Homo sapiens, UniProt Q96LB1)
# method-notes: MRGPRX2 IP1 HTRF assay
# Type: cell-based
# Design: host or cells: CHO-K1
# condition-notes: CHO-K1 cells stably expressing human MRGPRX2; IP1 accumulation, agonist Cortistatin 14 1 μM
Items are presented alongside their recorded IC50.

Some molecules with known IC50 results, for comparison:
OC1(C(F)(F)F)CC(CNc2cc(C(F)(F)F)nc3ccc(Cl)cc23)(c2ccccc2)C1 (centres unmarked) = 0.1 to 100 nM
O=C(N[C@H]1C[C@H](O)C1)N1CCC(CNc2cc(C(F)(F)F)nc3ccc(Cl)cc23)(c2ccc(F)cc2)CC1 = 0.1 to 100 nM
Cc1ccc2c(NCC3(c4ccc(F)cn4)CN(C(N)=O)C3)cc(C(F)(F)F)nc2c1 = > 1000 nM
N#CN=C(N)N1CC(CNc2cc(C(F)(F)F)nc3ccc(Cl)cc23)(c2ccc(F)cc2)C1 = 0.1 to 100 nM
NC(=O)N1CC(CNc2cc(C(F)(F)F)nc3cc(F)ccc23)(c2ccc(F)cn2)C1 = 100 to 1000 nM

QUERY: What value of measured IC50 is listed for NS(=O)(=O)NC1CC(CNc2cc(C(F)(F)F)nc3ccc(Cl)cc23)(c2ccccc2)C1 (centres unmarked) ?
RESULT: 0.1 to 100 nM

QUERY: What value of measured IC50 is listed for CNC(=O)N1CCC(CNc2cc(C(F)(F)F)nc3ccc(Cl)cc23)(c2ccccc2)C1 (centres unmarked) ?
RESULT: 0.1 to 100 nM

QUERY: What value of measured IC50 is listed for `Fc1ccc(C2(CNc3cc(C(F)(F)F)nc4ccc(Cl)cc34)COC2)cc1` ?
RESULT: 0.1 to 100 nM

====

# assay-target: MRGPRX2 (Homo sapiens)
# Sequence (Q96LB1 1-330): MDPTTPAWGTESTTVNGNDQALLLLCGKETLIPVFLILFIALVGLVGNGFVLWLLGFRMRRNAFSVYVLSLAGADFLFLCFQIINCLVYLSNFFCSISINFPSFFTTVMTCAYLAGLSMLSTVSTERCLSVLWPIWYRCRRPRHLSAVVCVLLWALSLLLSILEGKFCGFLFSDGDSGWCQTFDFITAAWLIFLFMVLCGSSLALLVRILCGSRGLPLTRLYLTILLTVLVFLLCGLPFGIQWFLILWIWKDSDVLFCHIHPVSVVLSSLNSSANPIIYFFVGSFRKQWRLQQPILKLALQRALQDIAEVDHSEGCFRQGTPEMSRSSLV
# method-notes: MRGPRX2 IP1 HTRF assay
# Assay type: cell-based
# Parameters: host or cells: CHO-K1
# condition-notes: CHO-K1 cells stably expressing human MRGPRX2; IP1 accumulation, agonist Cortistatin 14 1 μM
pIC50: −log10 of the molar value.
parameter: pIC50

Some compounds with known pIC50 results, for comparison:
NS(=O)(=O)N1CC(CNc2cc(C(F)(F)F)nc3ccc(Cl)cc23)(c2cccc(F)c2)C1 [Example 31] = 7.00 to 10.00
O=C(N[C@@H]1CC[C@@H](O)C1)N1CC(CNc2cc(C(F)(F)F)nc3ccc(Cl)cc23)(c2ccc(F)cc2)C1 [Example 90] = 7.00 to 10.00
O=C1CC(CNc2cc(C(F)(F)F)nc3ccc(Cl)cc23)(c2ccccc2)CN1 (stereo not drawn) [Example 8] = 7.00 to 10.00

QUERY: Give pIC50 (MRGPRX2 (Homo sapiens)) of the following compound: CNC(=O)N1CC(CNc2cc(C(F)(F)F)nc3ccc(Cl)cc23)(n2cccn2)C1 [Example 52]
RESULT: 7.00 to 10.00

QUERY: Give pIC50 (MRGPRX2 (Homo sapiens)) of the following compound: NC(=O)N1CC(CNc2cc(C(F)(F)F)nc3ccc(Cl)cc23)(c2ccccc2)C1 [Example 40]
RESULT: 7.00 to 10.00

QUERY: Give pIC50 (MRGPRX2 (Homo sapiens)) of the following compound: NS(=O)(=O)N1CC(CNc2cc(C(F)(F)F)nc3ccc(Cl)cc23)(c2ccc(Cl)cc2)C1 [Example 33]
RESULT: 7.00 to 10.00

QUERY: Give pIC50 (MRGPRX2 (Homo sapiens)) of the following compound: CNC(=O)N1CC(CNc2cc(C(F)(F)F)nc3ccc(Cl)cc23)(c2ccc(F)cn2)C1 [Example 51]
RESULT: 7.00 to 10.00

QUERY: Give pIC50 (MRGPRX2 (Homo sapiens)) of the following compound: COc1cnn(C2(CNc3cc(C(F)(F)F)nc4ccc(Cl)cc34)CN(C(N)=O)C2)c1 [Example 102]
RESULT: 6.00 to 7.00

QUERY: Give pIC50 (MRGPRX2 (Homo sapiens)) of the following compound: NS(=O)(=O)N1CCC(CNc2cc(C(F)(F)F)nc3ccc(F)cc23)(c2ccccc2)CC1 [Example 11]
RESULT: 7.00 to 10.00

QUERY: Give pIC50 (MRGPRX2 (Homo sapiens)) of the following compound: Cc1cc(C)n(C2(CNc3cc(C(F)(F)F)nc4ccc(Cl)cc34)CN(C(N)=O)C2)n1 [Example 105]
RESULT: 6.00 to 7.00

QUERY: Give pIC50 (MRGPRX2 (Homo sapiens)) of the following compound: NC(=O)C1(C(=O)NC2CC(CNc3cc(C(F)(F)F)nc4ccc(Cl)cc34)(c3ccccc3)C2)CC1 (stereo not drawn) [Example 74]
RESULT: 7.00 to 10.00

QUERY: Give pIC50 (MRGPRX2 (Homo sapiens)) of the following compound: NC(=O)N1CC(CNc2cc(C(F)(F)F)nc3ccc(Cl)cc23)(n2cc(Cl)cn2)C1 [Example 37]
RESULT: 7.00 to 10.00

QUERY: Give pIC50 (MRGPRX2 (Homo sapiens)) of the following compound: O=C(NC1CC(F)(F)C1)N1CC(CNc2cc(C(F)(F)F)nc3ccc(Cl)cc23)(c2ccc(F)cn2)C1 [Example 19]
RESULT: 7.00 to 10.00

====

Items are presented alongside their recorded IC50.
# assay-target: MRGPRX2 (Homo sapiens, UniProt Q96LB1)
# method-notes: MRGPRX2 IP1 HTRF assay
# Format: cell-based
# Design: host or cells: CHO-K1
# condition-notes: CHO-K1 cells stably expressing human MRGPRX2; IP1 accumulation, agonist Cortistatin 14 1 μM

Some compounds with known IC50 results, for comparison:
CN1CCC(CNc2cc(C(F)(F)F)nc3ccc(Cl)cc23)(c2ccccc2)CC1 = 0.1 to 100 nM
Cn1ncc2ccc(C3(CNc4cc(C(F)(F)F)nc5ccc(Cl)cc45)CN(S(N)(=O)=O)C3)cc21 = 100 to 1000 nM
N#Cc1ccc2nc(C(F)(F)F)cc(NCC3(c4ccc(F)cn4)CN(C(N)=O)C3)c2c1 = 100 to 1000 nM

QUERY: Give IC50 (MRGPRX2 (Homo sapiens, UniProt Q96LB1)) of the following compound: `NS(=O)(=O)N1CC(CNc2cc(C(F)(F)F)nc3ccc(Cl)cc23)(n2ccc(F)n2)C1`
RESULT: 0.1 to 100 nM

QUERY: Give IC50 (MRGPRX2 (Homo sapiens, UniProt Q96LB1)) of the following compound: `Fc1ccc(C2(CNc3cc(C(F)(F)F)nc4ccc(Cl)cc34)CN(Cc3cn[nH]c3)C2)cc1`
RESULT: 0.1 to 100 nM
